# test-system: T1, SARS-CoV-2 WT-RBD (SARS-CoV-2, UniProt P0DTC2)
# T1 construct: not shown: 6-His, C-terminal, kept
# protocol-notes: BLI
# conditions: both partners purified
experimental-endpoint: binding result

[
  {
    "binder": "CV07-270 (antibody, V domains shown) VH: QVQLVESGGGLVKPGGSLRLSCAASGFTFSDYYMTWIRQAPGKGLEWVSYISSSGSTIYYADSVKGRFTISRDNAKNSLYLQMNSLRAEDTAVYYCARARGSSGWYRIGTRWGNWFDPWGQGTLVTVSS VL: QSALTQPASVSGSPGQSITISCTGTSSDVGGYNYVSWYQQHPGKAPKLMIYEVSNRPSGVSNRFSGSKSGNTASLTISGLQAEDEADYYCSSYTSSSNVVFGGGTMLTVL",
    "experimental-endpoint": "binding result",
    "recorded-measurement": "binds"
  },
  {
    "binder": "BD-667 (antibody, V domains shown, IgG1; IGHV3-11) VH: QVQLVESGGGLVKPGGSLRLSCAASGFRFSDYYMNWIRQAPGKGLEWISYIGSGGFATYYGDSVKGRFTVSRDDAENSLYLQMNSLRAEDTAVYYCARGVTSYSDNSGNYRTDDAFDIWGQGTMVTVSS VL: EIVMTQSPATLSVSPGERATLSCRASQSVSRNLAWYQQRPGQAPRLLIYGASTRATGVAARFTGSGFGTEFTLTISGLQSEDFAVYYCQEYNNWPPWTFGQGTKVEIK",
    "experimental-endpoint": "binding result",
    "recorded-measurement": "binds"
  }
]

The origin of these recorded values is paper PMC9662066.
